test system: biotinyl-Met-oxazolone; test: self-aminoacylation, catalytic enhancement (BMO) (fold over background); higher = more active; k-Seq, kA / k0A0; sequences stand for … in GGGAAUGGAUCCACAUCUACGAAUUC…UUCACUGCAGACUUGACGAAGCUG
Variants at the floor of the assay were thinned out.
self-aminoacylation reference
// print number alone

sequence_data	self-aminoacylation
AUUACUCUGGUCAUCGAAUGA [Fam2.1 aminoacylation ribozyme variant]	1.45

For the sequence AUUCCCCUGGUAAUCGAGUGA [Fam2.1 aminoacylation ribozyme variant] , report self-aminoacylation.
6.36

For the sequence AGUGACCUAGGUCAUCGGGUG [Fam2.2 aminoacylation ribozyme variant] , report self-aminoacylation.
3.53

For the sequence AUUCGCCUAGGACAUCGGGUG [Fam2.2 aminoacylation ribozyme variant] , report self-aminoacylation.
3.03

For the sequence AUUACCCUGAUCAUCGCGUGA [Fam2.1 aminoacylation ribozyme variant] , report self-aminoacylation.
14.7

For the sequence AUUCACCCAAGUCAUCGGGUG [Fam2.2 aminoacylation ribozyme variant] , report self-aminoacylation.
11

---

tested on: biotinyl-Trp-oxazolone; experiment: self-aminoacylation, catalytic enhancement (BWO) (fold over background); higher = more active; k-Seq, kA / k0A0; sequences stand for … in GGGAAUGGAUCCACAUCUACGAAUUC…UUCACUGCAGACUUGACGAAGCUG
Fewer inactive variants are shown than the library holds.
Kindly note that classification relies on self-aminoacylation with these boundaries: low range: < 2; mid range: ≥ 2 and < 3; high range: ≥ 3

Below are worked cases with known answers.
sequence_data	assayed_system	category_label
CUACUUAAAACAAUAGGUCUG [Fam1A.1 aminoacylation ribozyme variant]	biotinyl-Trp-oxazolone	low range
AAAUUUGCUAAUAGUUGCAAG [Fam3.1 aminoacylation ribozyme variant]	biotinyl-Trp-oxazolone	low range
ACACACUUCAGGCAAUCGGUC [Fam1B.1 aminoacylation ribozyme variant]	biotinyl-Trp-oxazolone	low range
AAGUUUGCCAAUAGUCGAAAG [Fam3.1 aminoacylation ribozyme variant]	biotinyl-Trp-oxazolone	low range
AUCACCCUGGUCAUCGAGUAA [Fam2.1 aminoacylation ribozyme variant]	biotinyl-Trp-oxazolone	mid range
CCACACUUCAAGCAUUCGGCC [Fam1B.1 aminoacylation ribozyme variant]	biotinyl-Trp-oxazolone	low range
AGUACCCUGGUCAUGGAGUGA [Fam2.1 aminoacylation ribozyme variant]	biotinyl-Trp-oxazolone	mid range
AUUCACGUAGGUAAUCGGGUG [Fam2.2 aminoacylation ribozyme variant]	biotinyl-Trp-oxazolone	high range

Form field 'band' for AAGUUUGCUAUUAGUUGCAAG [Fam3.1 aminoacylation ribozyme variant]
low range

Form field 'band' for AUCACCCUGGUCAUCGUGUGA [Fam2.1 aminoacylation ribozyme variant]
high range

Form field 'band' for AUUUCCCUGGUCAUCGAGUGC [Fam2.1 aminoacylation ribozyme variant]
low range

Form field 'band' for CUACUUGAAACAAUCGGUCUG [Fam1A.1 aminoacylation ribozyme variant]
low range

Form field 'band' for AUUAGCAUGGUCAUCGAGUGA [Fam2.1 aminoacylation ribozyme variant]
high range

Form field 'band' for CCACCCUUCAAGCAAUAGGUC [Fam1B.1 aminoacylation ribozyme variant]
low range

Form field 'band' for ACUAACCUAGGUCAUCGGGUG [Fam2.2 aminoacylation ribozyme variant]
high range

Form field 'band' for CUUCUUCAAACAAUCCGUCUG [Fam1A.1 aminoacylation ribozyme variant]
low range

Form field 'band' for AUGCACCUAGGUCAUCGAGUG [Fam2.2 aminoacylation ribozyme variant]
high range

Form field 'band' for CUACUUCAGACACUCGGUCUG [Fam1A.1 aminoacylation ribozyme variant]
low range

Form field 'band' for AUUGAACUAGGUCAUCGGGUG [Fam2.2 aminoacylation ribozyme variant]
high range

Form field 'band' for CAACACUUCAGGCAAUCGGUC [Fam1B.1 aminoacylation ribozyme variant]
low range

Form field 'band' for AUCCACCUAGGUCCUCGGGUG [Fam2.2 aminoacylation ribozyme variant]
high range

Form field 'band' for CCACGGUUCAAGCAAUCGGUC [Fam1B.1 aminoacylation ribozyme variant]
mid range

---

tested on: biotinyl-Ile-oxazolone; test: self-aminoacylation, catalytic enhancement (BIO) (fold over background); higher = more active; k-Seq, kA / k0A0; sequences stand for … in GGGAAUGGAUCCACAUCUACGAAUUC…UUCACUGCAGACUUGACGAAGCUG
This sample holds only a part of the variants without activity.
readout: self-aminoacylation
// print number alone

Known results for sequences:
sequence_data	self-aminoacylation
CUACUACAUACAAUCGGUCUG [Fam1A.1 aminoacylation ribozyme variant]	0.812
CUACUCCAAAAAAUCGGUCUG [Fam1A.1 aminoacylation ribozyme variant]	0.894
AAGUUCGCUAAUAAUCGCAAG [Fam3.1 aminoacylation ribozyme variant]	1.24
CCAAACUUUAAGCAAUCGGUC [Fam1B.1 aminoacylation ribozyme variant]	1.11
AAGUUUGGUAAUAGUCGCAGG [Fam3.1 aminoacylation ribozyme variant]	1.47
AACUUUGCUAAUAGUCGCAUG [Fam3.1 aminoacylation ribozyme variant]	2.77
AUUACCCAGGUCAUUGAGUGA [Fam2.1 aminoacylation ribozyme variant]	4.59
AUUACCAUGGUCAUCGAGCGA [Fam2.1 aminoacylation ribozyme variant]	1.73

For the sequence AUUACCCUGGUCAGAGAGUGA [Fam2.1 aminoacylation ribozyme variant] , report self-aminoacylation.
3.18

---

test system: biotinyl-Trp-oxazolone; assay: self-aminoacylation, catalytic enhancement (BWO) (fold over background); higher = more active; k-Seq, kA / k0A0; sequences stand for … in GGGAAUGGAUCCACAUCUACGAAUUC…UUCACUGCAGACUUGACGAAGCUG
Variants at the floor of the assay were thinned out.
self-aminoacylation vs 3: at or above is label 1, below is label 0.

Below are worked cases with known answers.
sequence_data	category_label
UUUCACAUAGGUCAUCGGGUG [Fam2.2 aminoacylation ribozyme variant]	label 1
AUUACCGCGGUCAUCGAGUGA [Fam2.1 aminoacylation ribozyme variant]	label 1
AUUCGCCUAGGUCAUCGGGUG [Fam2.2 aminoacylation ribozyme variant]	label 1

Could you verify whether the entry AUAUUUCAAACAAUCGGUCUG [Fam1A.1 aminoacylation ribozyme variant] shows self-aminoacylation of no less than 3?
label 1

Could you verify whether the entry CUACUUCAAACCGUCGGUCUG [Fam1A.1 aminoacylation ribozyme variant] shows self-aminoacylation of no less than 3?
label 0

Could you verify whether the entry AAGUUUGCUAUUAGUCCCAAG [Fam3.1 aminoacylation ribozyme variant] shows self-aminoacylation of no less than 3?
label 0

Could you verify whether the entry AAGUUUGCUAAUAGUCGCUAG [Fam3.1 aminoacylation ribozyme variant] shows self-aminoacylation of no less than 3?
label 0

Could you verify whether the entry AUUACUCUGGUCAUCGAGUGC [Fam2.1 aminoacylation ribozyme variant] shows self-aminoacylation of no less than 3?
label 0

Could you verify whether the entry CCAAACUUCAAGCAAUUGGUC [Fam1B.1 aminoacylation ribozyme variant] shows self-aminoacylation of no less than 3?
label 0

---

tested on: biotinyl-Met-oxazolone; experiment: self-aminoacylation, catalytic enhancement (BMO) (fold over background); higher = more active; k-Seq, kA / k0A0; sequences stand for … in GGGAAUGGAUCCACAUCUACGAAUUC…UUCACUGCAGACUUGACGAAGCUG
This sample holds only a part of the variants without activity.
readout: self-aminoacylation
// print number alone

Look up biotinyl-Met-oxazolone data: self-aminoacylation of AUUCACCAAGGUCAUCGCGUG [Fam2.2 aminoacylation ribozyme variant] , then report it.
16

Look up biotinyl-Met-oxazolone data: self-aminoacylation of AUUACCCUGGGCAACGAGUGA [Fam2.1 aminoacylation ribozyme variant] , then report it.
7.64

Look up biotinyl-Met-oxazolone data: self-aminoacylation of AUUCCCCUGGGUCAUCGGGUG [Fam2.2 aminoacylation ribozyme variant] , then report it.
12.2

Look up biotinyl-Met-oxazolone data: self-aminoacylation of AUUAGCCUGGUAAUCGAGUGA [Fam2.1 aminoacylation ribozyme variant] , then report it.
11.6

Look up biotinyl-Met-oxazolone data: self-aminoacylation of AUUAACCUGGUCAUAGAGUGA [Fam2.1 aminoacylation ribozyme variant] , then report it.
4.3

Look up biotinyl-Met-oxazolone data: self-aminoacylation of CUACUCCAAAAAAUCGGUCUG [Fam1A.1 aminoacylation ribozyme variant] , then report it.
0.674

---

tested on: biotinyl-Met-oxazolone; experiment: self-aminoacylation, catalytic enhancement (BMO) (fold over background); higher = more active; k-Seq, kA / k0A0; sequences stand for … in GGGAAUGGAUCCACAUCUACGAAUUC…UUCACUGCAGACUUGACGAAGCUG
Variants at the floor of the assay were thinned out.
self-aminoacylation reference

Known results for sequences:
sequence_data	assayed_system	readout	result
AUUACCCUGCUCAUAGAGUGA [Fam2.1 aminoacylation ribozyme variant]	biotinyl-Met-oxazolone	self-aminoacylation	9.74
AUUCACCUCGGUUAUCGGGUG [Fam2.2 aminoacylation ribozyme variant]	biotinyl-Met-oxazolone	self-aminoacylation	5.58
AUUCACCUAGGUCCUAGGGUG [Fam2.2 aminoacylation ribozyme variant]	biotinyl-Met-oxazolone	self-aminoacylation	2.55
AUUUACCUAGGUCAACGGGUG [Fam2.2 aminoacylation ribozyme variant]	biotinyl-Met-oxazolone	self-aminoacylation	4.05
CUUCACCUAGGUAAUCGGGUG [Fam2.2 aminoacylation ribozyme variant]	biotinyl-Met-oxazolone	self-aminoacylation	2.65
AGUCACCUAGGUCAUCGGGUG [Fam2.2 aminoacylation ribozyme variant]	biotinyl-Met-oxazolone	self-aminoacylation	6.24

For the sequence ACUACCCUGGUCAUCCAGUGA [Fam2.1 aminoacylation ribozyme variant] , report self-aminoacylation.
5.05

For the sequence CUACUUCAAAAAAUCGGUCAG [Fam1A.1 aminoacylation ribozyme variant] , report self-aminoacylation.
0.722

For the sequence AAGUUUGCUAAUAGUCGCACC [Fam3.1 aminoacylation ribozyme variant] , report self-aminoacylation.
0.569
